TARGET: MAP3K5 (human) (UniProt Q99683)
Sequence (Q99683 whole entry, looked up): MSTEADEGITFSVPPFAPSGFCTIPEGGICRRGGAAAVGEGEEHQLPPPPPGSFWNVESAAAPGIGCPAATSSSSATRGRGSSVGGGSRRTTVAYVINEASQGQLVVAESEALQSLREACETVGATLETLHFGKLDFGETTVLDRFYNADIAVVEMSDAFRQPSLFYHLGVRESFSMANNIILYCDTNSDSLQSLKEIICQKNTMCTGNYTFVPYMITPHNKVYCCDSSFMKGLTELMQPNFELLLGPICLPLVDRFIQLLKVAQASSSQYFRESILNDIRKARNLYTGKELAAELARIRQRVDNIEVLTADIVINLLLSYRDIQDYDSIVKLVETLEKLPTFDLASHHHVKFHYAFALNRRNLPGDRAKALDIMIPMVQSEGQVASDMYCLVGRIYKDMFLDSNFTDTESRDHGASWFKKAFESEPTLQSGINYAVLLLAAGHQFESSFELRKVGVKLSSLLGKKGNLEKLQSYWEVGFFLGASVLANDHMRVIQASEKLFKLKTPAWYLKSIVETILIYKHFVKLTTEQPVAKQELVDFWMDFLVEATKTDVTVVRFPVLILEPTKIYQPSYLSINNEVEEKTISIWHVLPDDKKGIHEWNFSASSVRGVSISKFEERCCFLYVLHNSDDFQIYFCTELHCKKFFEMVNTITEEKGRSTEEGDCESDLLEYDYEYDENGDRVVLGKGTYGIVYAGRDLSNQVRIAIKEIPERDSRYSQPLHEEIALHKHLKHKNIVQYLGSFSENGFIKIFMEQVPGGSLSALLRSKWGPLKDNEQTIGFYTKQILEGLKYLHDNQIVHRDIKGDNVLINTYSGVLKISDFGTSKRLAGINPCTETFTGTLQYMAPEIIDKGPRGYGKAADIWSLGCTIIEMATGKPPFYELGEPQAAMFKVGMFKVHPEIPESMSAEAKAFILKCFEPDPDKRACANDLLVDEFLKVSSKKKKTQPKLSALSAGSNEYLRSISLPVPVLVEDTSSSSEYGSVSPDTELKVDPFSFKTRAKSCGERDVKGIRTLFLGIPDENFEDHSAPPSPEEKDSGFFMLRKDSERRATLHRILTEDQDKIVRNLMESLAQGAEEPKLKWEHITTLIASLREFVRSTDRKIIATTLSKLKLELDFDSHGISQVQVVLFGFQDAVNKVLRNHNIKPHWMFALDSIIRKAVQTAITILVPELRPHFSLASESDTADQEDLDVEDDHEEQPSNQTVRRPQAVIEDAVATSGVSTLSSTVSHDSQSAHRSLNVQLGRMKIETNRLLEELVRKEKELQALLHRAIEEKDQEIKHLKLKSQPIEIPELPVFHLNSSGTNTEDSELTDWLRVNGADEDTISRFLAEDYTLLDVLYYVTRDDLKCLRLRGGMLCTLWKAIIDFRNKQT
ASSAY: radiometric filter-binding kinase assay, Kinase HotSpot
ASSAY_SETUP: compound 0.5 µM; ATP 10 µM
MEASURED_PROPERTY: residual activity (%)
Give the quantity in %, number only.

Known results for compounds:
Cc1cc2ncc(-c3ccccc3)nc2cc1C : 107
CC(C)n1cnc2c(Nc3cccc(Cl)c3)nc(NCCO)nc21 : 114

Data request, read-out residual activity, for `Oc1ccc(-c2nc(-c3ccc(F)cc3)c(-c3ccncc3)[nH]2)cc1`
105

* * *

TARGET: TXK (human)
ASSAY: radiometric filter-binding kinase assay, Kinase HotSpot
ASSAY_SETUP: compound 0.5 µM; ATP 10 µM
MEASURED_PROPERTY: residual activity (%)
Give the quantity in %, number only.

Known results for molecules:
CSc1nc(-c2ccc(F)cc2)c(-c2ccnc(NC(C)c3ccccc3)c2)[nH]1 (configuration not stated) : 93.1
Nc1nc(Nc2ccc(S(N)(=O)=O)cc2)nn1C(=S)Nc1c(F)cccc1F : 85.8
Nc1n[nH]c2nnc(-c3c(-c4ccccc4)nn4ccccc34)cc12 : 88.8
COc1ccc(-c2cnc3c(-c4ccsc4)cnn3c2)cc1 : 85.2
CC(C)n1cnc2c(Nc3cccc(Cl)c3)nc(NCCO)nc21 : 78.1
O=C(NC(NC(=S)Nc1ccc(F)c([N+](=O)[O-])c1)C(Cl)(Cl)Cl)C(c1ccccc1)c1ccccc1 (configuration not stated) : 108
O=C1Nc2cc(Br)ccc2/C1=C1/Nc2ccccc2/C1=N\O : 27.7
Cc1ccc(NC(=O)c2ccc(CN3CCN(C)CC3)cc2)cc1Nc1nc(-c2cccnc2)cs1 : 101
Cc1cc2ncc(-c3ccccc3)nc2cc1C : 99.5
O=C1Nc2ccccc2/C1=C\c1c(Cl)[nH]c2ccccc12 : 99.6

Data request, read-out residual activity, for `NC(=O)c1ccc(N(C(N)=O)c2c(F)cccc2F)nc1-c1ccc(F)cc1F`
104

Data request, read-out residual activity, for `O=C1Cc2c([nH]c3ccc([N+](=O)[O-])cc23)-c2ccccc2N1`
87.3

Data request, read-out residual activity, for `COc1cc2nccc(Oc3ccc(NC(=S)NC(=O)c4ccccc4C)cc3)c2cc1OC`
66.9

Data request, read-out residual activity, for CS(=O)c1ccc(-c2nc(-c3ccc(F)cc3)c(-c3ccncc3)[nH]2)cc1 (configuration not stated)
63.9

* * *

Parameter residual activity: see the listing below.
TARGET: PRKX (human) (UniProt P51817)
Sequence (P51817 whole entry, looked up): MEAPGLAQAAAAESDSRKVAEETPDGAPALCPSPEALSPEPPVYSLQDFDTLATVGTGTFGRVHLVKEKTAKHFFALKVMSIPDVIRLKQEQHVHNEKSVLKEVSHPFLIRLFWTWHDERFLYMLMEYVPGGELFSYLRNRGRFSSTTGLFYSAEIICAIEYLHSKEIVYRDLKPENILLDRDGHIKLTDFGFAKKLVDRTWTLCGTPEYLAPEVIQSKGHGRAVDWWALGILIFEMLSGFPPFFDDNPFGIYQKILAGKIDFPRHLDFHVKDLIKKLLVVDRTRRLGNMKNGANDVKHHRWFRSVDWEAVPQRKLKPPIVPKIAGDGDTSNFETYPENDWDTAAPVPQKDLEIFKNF
ASSAY: radiometric filter-binding kinase assay, Kinase HotSpot
ASSAY_SETUP: compound 0.5 µM; ATP 10 µM
Hi, when you answer, please include the unit after the number. Thanks!

CCN1/C(=C/C(C)=O)Sc2ccc(OC)cc21 : 96.6%
COc1ccc(-c2cnc3c(-c4ccsc4)cnn3c2)cc1 : 89.5%
Nc1nc(Nc2ccc(S(N)(=O)=O)cc2)nn1C(=O)c1c(F)cccc1F : 89%
CCCNC(=O)Nc1ccc(Oc2ncnc3cc(OC)c(OC)cc23)cc1Cl : 100%
O=C1Cc2c([nH]c3ccc([N+](=O)[O-])cc23)-c2ccccc2N1 : 74.5%

Kindly state the measured residual activity obtained for `NC(=O)c1ccc(N(C(N)=O)c2c(F)cccc2F)nc1-c1ccc(F)cc1F` with PRKX (human) (UniProt P51817).
123%

* * *

TARGET: UniProtKB P06241
Sequence (P06241 whole entry, looked up): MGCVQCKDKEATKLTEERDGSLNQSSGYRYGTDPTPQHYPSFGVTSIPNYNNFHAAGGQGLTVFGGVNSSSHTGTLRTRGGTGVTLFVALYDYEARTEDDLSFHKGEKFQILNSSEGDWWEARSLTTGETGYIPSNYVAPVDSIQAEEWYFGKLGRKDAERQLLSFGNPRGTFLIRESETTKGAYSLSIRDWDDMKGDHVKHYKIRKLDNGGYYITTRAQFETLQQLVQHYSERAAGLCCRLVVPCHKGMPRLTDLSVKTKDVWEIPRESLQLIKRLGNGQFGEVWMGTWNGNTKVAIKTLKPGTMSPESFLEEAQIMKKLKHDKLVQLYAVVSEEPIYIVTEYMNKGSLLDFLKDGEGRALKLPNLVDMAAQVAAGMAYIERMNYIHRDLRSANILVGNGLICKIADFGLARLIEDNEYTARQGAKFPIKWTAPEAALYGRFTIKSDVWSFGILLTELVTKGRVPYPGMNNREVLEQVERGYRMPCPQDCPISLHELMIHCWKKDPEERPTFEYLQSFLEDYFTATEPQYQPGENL
ASSAY: radiometric filter-binding kinase assay, Kinase HotSpot
ASSAY_SETUP: compound 0.5 µM; ATP 10 µM
Parameter residual activity: see the listing below.
Give the quantity in %, number only.

Known results for compounds:
Cc1cc2ncc(-c3ccccc3)nc2cc1C : 99.4
O=C1Cc2c([nH]c3ccc([N+](=O)[O-])cc23)-c2ccccc2N1 : 53.1
Oc1ccc(-c2nc(-c3ccc(F)cc3)c(-c3ccncc3)[nH]2)cc1 : 87.5
O=C(Nc1ccc(Cl)cc1)c1ccccc1NCc1ccncc1 : 97
O=C1Nc2ccccc2/C1=C\c1c(Cl)[nH]c2ccccc12 : 101

Kindly state the measured residual activity obtained for `CC(C)[C@H](CO)Nc1nc(Nc2cccc(Cl)c2)c2ncn(C(C)C)c2n1` with UniProtKB P06241.
48.9

Kindly state the measured residual activity obtained for CS(=O)c1ccc(-c2nc(-c3ccc(F)cc3)c(-c3ccncc3)[nH]2)cc1 (stereo not given) with UniProtKB P06241.
89.8

Kindly state the measured residual activity obtained for O=C(NC(NC(=S)Nc1ccc(F)c([N+](=O)[O-])c1)C(Cl)(Cl)Cl)C(c1ccccc1)c1ccccc1 (stereo not given) with UniProtKB P06241.
91.2

Kindly state the measured residual activity obtained for `O=c1cc(-c2cccc3c2Sc2ccccc2S3)oc(N2CCOCC2)c1` with UniProtKB P06241.
88.6

Kindly state the measured residual activity obtained for `CCN1/C(=C/C(C)=O)Sc2ccc(OC)cc21` with UniProtKB P06241.
99.1

Kindly state the measured residual activity obtained for `CC(C)(C)c1nc2c3ccc(F)cc3c3c(=O)[nH]ccc3c2[nH]1` with UniProtKB P06241.
52.3

Kindly state the measured residual activity obtained for `COc1cc2nccc(Oc3ccc(NC(=S)NC(=O)c4ccccc4C)cc3)c2cc1OC` with UniProtKB P06241.
77.4

Kindly state the measured residual activity obtained for `Nc1nc(Nc2ccc(S(N)(=O)=O)cc2)nn1C(=O)c1c(F)cccc1F` with UniProtKB P06241.
78.6

Kindly state the measured residual activity obtained for `COc1cc2ncnc(Nc3ccc(F)c(Cl)c3)c2cc1OCCCN1CCOCC1` with UniProtKB P06241.
92.2

Kindly state the measured residual activity obtained for `CCCNC(=O)Nc1ccc(Oc2ncnc3cc(OC)c(OC)cc23)cc1Cl` with UniProtKB P06241.
92.7

Kindly state the measured residual activity obtained for CSc1nc(-c2ccc(F)cc2)c(-c2ccnc(NC(C)c3ccccc3)c2)[nH]1 (stereo not given) with UniProtKB P06241.
98.7

Kindly state the measured residual activity obtained for `NC(=O)c1ccc(N(C(N)=O)c2c(F)cccc2F)nc1-c1ccc(F)cc1F` with UniProtKB P06241.
110

Kindly state the measured residual activity obtained for `Nc1n[nH]c2nnc(-c3c(-c4ccccc4)nn4ccccc34)cc12` with UniProtKB P06241.
95

Kindly state the measured residual activity obtained for `Nc1nc(Nc2ccc(S(N)(=O)=O)cc2)nn1C(=S)Nc1c(F)cccc1F` with UniProtKB P06241.
24.8

Kindly state the measured residual activity obtained for `O=c1cc(N2CCNCC2)oc2c(-c3ccccc3)cccc12` with UniProtKB P06241.
104

* * *

TARGET: MAP3K10 (human) (UniProt Q02779)
Sequence (Q02779 whole entry, looked up): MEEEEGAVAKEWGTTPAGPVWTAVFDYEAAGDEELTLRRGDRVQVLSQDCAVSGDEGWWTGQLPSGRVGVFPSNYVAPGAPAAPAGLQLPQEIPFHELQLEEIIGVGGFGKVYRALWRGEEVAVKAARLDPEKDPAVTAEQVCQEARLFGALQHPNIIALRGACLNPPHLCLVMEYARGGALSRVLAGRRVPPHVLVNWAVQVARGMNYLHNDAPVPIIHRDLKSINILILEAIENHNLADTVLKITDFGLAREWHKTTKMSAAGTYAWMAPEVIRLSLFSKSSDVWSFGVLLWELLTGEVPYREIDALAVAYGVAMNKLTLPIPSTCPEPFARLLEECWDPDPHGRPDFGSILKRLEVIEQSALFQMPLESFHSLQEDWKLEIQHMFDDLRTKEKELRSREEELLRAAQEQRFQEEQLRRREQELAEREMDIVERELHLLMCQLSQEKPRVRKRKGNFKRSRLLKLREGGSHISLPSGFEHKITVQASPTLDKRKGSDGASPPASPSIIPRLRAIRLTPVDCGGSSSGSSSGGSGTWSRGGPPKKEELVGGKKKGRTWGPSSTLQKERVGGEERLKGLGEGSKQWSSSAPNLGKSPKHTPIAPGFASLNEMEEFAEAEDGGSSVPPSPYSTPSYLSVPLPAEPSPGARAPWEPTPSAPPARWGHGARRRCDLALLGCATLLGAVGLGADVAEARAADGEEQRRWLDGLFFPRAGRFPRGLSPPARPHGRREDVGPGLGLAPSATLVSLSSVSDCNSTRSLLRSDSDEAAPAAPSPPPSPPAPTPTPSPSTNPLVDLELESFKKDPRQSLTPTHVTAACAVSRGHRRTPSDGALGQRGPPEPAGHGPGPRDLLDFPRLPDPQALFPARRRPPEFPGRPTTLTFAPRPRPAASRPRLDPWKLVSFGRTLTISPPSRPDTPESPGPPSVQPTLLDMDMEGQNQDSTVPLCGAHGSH
ASSAY: radiometric filter-binding kinase assay, Kinase HotSpot
ASSAY_SETUP: compound 0.5 µM; ATP 10 µM
MEASURED_PROPERTY: residual activity (%)
Give the quantity in %, number only.

Known results for compounds:
COc1ccc(-c2cnc3c(-c4ccsc4)cnn3c2)cc1 : 94.2
CCCNC(=O)Nc1ccc(Oc2ncnc3cc(OC)c(OC)cc23)cc1Cl : 103
O=C1Nc2cc(Br)ccc2/C1=C1/Nc2ccccc2/C1=N\O : 92.1

Data request, read-out residual activity, for `O=C1Cc2c([nH]c3ccc([N+](=O)[O-])cc23)-c2ccccc2N1`
48.6

Data request, read-out residual activity, for `O=C(Nc1ccc(Cl)cc1)c1ccccc1NCc1ccncc1`
104

* * *

TARGET: SYK (human)
ASSAY: radiometric filter-binding kinase assay, Kinase HotSpot
ASSAY_SETUP: compound 0.5 µM; ATP 10 µM
MEASURED_PROPERTY: residual activity (%)
Give the quantity in %, number only.

Known results for molecules:
COc1cc2ncnc(Nc3ccc(F)c(Cl)c3)c2cc1OCCCN1CCOCC1 : 104
O=C(Nc1ccc(Cl)cc1)c1ccccc1NCc1ccncc1 : 93.6
CSc1nc(-c2ccc(F)cc2)c(-c2ccnc(NC(C)c3ccccc3)c2)[nH]1 (centres undefined) : 96.8
Oc1ccc(-c2nc(-c3ccc(F)cc3)c(-c3ccncc3)[nH]2)cc1 : 101
CS(=O)c1ccc(-c2nc(-c3ccc(F)cc3)c(-c3ccncc3)[nH]2)cc1 (centres undefined) : 98
CC(C)[C@H](CO)Nc1nc(Nc2cccc(Cl)c2)c2ncn(C(C)C)c2n1 : 88.9
O=C1Nc2cc(Br)ccc2/C1=C1/Nc2ccccc2/C1=N\O : 45.7
Nc1nc(Nc2ccc(S(N)(=O)=O)cc2)nn1C(=O)c1c(F)cccc1F : 61.6

Data request, read-out residual activity, for `CC(C)(C)c1nc2c3ccc(F)cc3c3c(=O)[nH]ccc3c2[nH]1`
79

Data request, read-out residual activity, for `O=c1cc(N2CCNCC2)oc2c(-c3ccccc3)cccc12`
104

Data request, read-out residual activity, for O=C(NC(NC(=S)Nc1ccc(F)c([N+](=O)[O-])c1)C(Cl)(Cl)Cl)C(c1ccccc1)c1ccccc1 (centres undefined)
104

Data request, read-out residual activity, for `NC(=O)c1ccc(N(C(N)=O)c2c(F)cccc2F)nc1-c1ccc(F)cc1F`
110

Data request, read-out residual activity, for `Nc1nc(Nc2ccc(S(N)(=O)=O)cc2)nn1C(=S)Nc1c(F)cccc1F`
15.5

Data request, read-out residual activity, for `CC(C)n1cnc2c(Nc3cccc(Cl)c3)nc(NCCO)nc21`
85.1
